# pIC50 values compiled below
# Tested on: HepG2
# assay: Cytotoxicity against human HepG2 cells overexpressing NQO1 assessed as reduction in cell viability incubated for 48 hrs by MTT assay
# Assay type: functional, cell-based
# conditions: HepG2, 48 h
Reminder that pIC50 is minus the log10 of a molar concentration.

Look over these answered cases.
# compound, targetOrTestSystem, reportedResult
records = [
    ("COc1cc([C@@H]2c3cc4c(cc3[C@@H](OC(=O)OCc3ccc(NC(=O)CC(C)(C)C5=C(C)C(=O)C(C)=C(C)C5=O)cc3)[C@H]3COC(=O)[C@H]23)OCO4)cc(OC)c1OC", "HepG2", 6.58),
    ("COc1cc([C@@H]2c3cc4c(cc3[C@@H](OC(=O)OCc3ccc(N(C)C(=O)CC(C)(C)C5=C(C)C(=O)C(C)=C(C)C5=O)cc3)[C@H]3COC(=O)[C@H]23)OCO4)cc(OC)c1OC", "HepG2", 7.08),
    ("COc1cc([C@@H]2c3cc4c(cc3[C@@H](OC(=O)CC(C)(C)C3=C(C)C(=O)C(C)=C(C)C3=O)[C@H]3COC(=O)[C@H]23)OCO4)cc(OC)c1OC", "HepG2", 6.97),
]

From here, focus on the item given below.
The measured pIC50 associated with COc1cc([C@@H]2c3cc4c(cc3[C@H](O)[C@H]3COC(=O)[C@H]23)OCO4)cc(OC)c1OC [PODOFILOX] reads 7.08
